Attribution: patent US8134015B2

Listed compounds paired with reported pIC50
Target: rat NaPi-2b (Rattus norvegicus, UniProt Q9JJ09)
Sequence (Q9JJ09 whole entry): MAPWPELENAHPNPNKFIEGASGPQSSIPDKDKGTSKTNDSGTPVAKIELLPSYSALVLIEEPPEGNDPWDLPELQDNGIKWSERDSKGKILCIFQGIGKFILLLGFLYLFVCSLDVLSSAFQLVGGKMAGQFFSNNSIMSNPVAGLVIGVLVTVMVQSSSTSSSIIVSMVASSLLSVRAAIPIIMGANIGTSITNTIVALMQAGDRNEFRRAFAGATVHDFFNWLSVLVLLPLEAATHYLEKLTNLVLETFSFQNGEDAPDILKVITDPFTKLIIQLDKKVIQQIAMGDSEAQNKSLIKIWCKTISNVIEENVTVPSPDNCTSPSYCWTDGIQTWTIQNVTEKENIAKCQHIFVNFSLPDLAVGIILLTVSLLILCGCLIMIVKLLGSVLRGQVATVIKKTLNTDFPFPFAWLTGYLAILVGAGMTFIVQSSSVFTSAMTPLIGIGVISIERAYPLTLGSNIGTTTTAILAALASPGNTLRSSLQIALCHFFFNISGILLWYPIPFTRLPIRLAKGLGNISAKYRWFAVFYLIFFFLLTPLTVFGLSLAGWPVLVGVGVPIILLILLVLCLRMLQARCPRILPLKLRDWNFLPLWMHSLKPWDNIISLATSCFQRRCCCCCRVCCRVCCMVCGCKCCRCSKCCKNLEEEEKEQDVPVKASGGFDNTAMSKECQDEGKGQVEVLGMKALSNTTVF
Assay: Sodium-dependent phosphate uptake of Xenopus oocytes which expressed NaPi-2b (32P)
Settings: Xenopus oocytes expressing rat NaPi-2b, 32P radioactive phosphorus; read-out: IC50 (phosphate uptake inhibitory activity)
pIC50: −log10 of the molar value.

{"COMPOUND": "COc1ccc(/C=N/NC(=O)c2cc(I)ccc2NC(=O)c2cccc(CN3CCC(N4CCCCC4)CC3)c2)cc1 [Compound 489]", "MEASUREMENT TARGET": "rat NaPi-2b (Rattus norvegicus, UniProt Q9JJ09)", "pIC50": "> 5.52"}
{"COMPOUND": "CC1CCN(c2ccc(NC(=O)c3cccc(CSCCO)c3)c(C(=O)N/N=C/c3ccc(Cl)c(C(F)(F)F)c3)c2)CC1 [Compound 1070]", "MEASUREMENT TARGET": "rat NaPi-2b (Rattus norvegicus, UniProt Q9JJ09)", "pIC50": "> 6.00"}
{"COMPOUND": "CCN(CC)CCN(C)Cc1cccc(C(=O)Nc2sc3c(c2C(=O)N/N=C/c2ccc(Cl)c(C(F)(F)F)c2)CCCC3)c1 [Compound 613]", "MEASUREMENT TARGET": "rat NaPi-2b (Rattus norvegicus, UniProt Q9JJ09)", "pIC50": 5.85}
{"COMPOUND": "Cc1cccc(/C=N/NC(=O)c2cc(Cl)ccc2NC(=O)c2ccccn2)c1 [Compound 361]", "MEASUREMENT TARGET": "rat NaPi-2b (Rattus norvegicus, UniProt Q9JJ09)", "pIC50": "> 6.00"}
{"COMPOUND": "Cc1ccc(/C=N/NC(=O)c2cc(N3CCCC3=O)ccc2NC(=O)c2cccc(CN(CC(C)O)CC(C)O)c2)cc1C (stereo not shown) [Compound 944]", "MEASUREMENT TARGET": "rat NaPi-2b (Rattus norvegicus, UniProt Q9JJ09)", "pIC50": 4.92}
{"COMPOUND": "COc1ccc(C(=O)Nc2scc(C)c2C(=O)N/N=C/c2ccc(C)c(C)c2)cc1OC [Compound 521]", "MEASUREMENT TARGET": "rat NaPi-2b (Rattus norvegicus, UniProt Q9JJ09)", "pIC50": 5.91}
{"COMPOUND": "COc1ccc(/C=N/NC(=O)c2cc(OCCN3CCCCC3)ccc2NC(=O)c2cccc(CSCCO)c2)cc1 [Compound 1045]", "MEASUREMENT TARGET": "rat NaPi-2b (Rattus norvegicus, UniProt Q9JJ09)", "pIC50": 4.88}
{"COMPOUND": "COc1ccc(NC(=O)c2ccc(OC)c(OC)c2)c(C(=O)N/N=C/c2cccc(F)c2)c1 [Compound 141]", "MEASUREMENT TARGET": "rat NaPi-2b (Rattus norvegicus, UniProt Q9JJ09)", "pIC50": 5.24}

**Query** # get_value(readout='pIC50', item= Cc1ccc(/C=N/NC(=O)c2cc(Br)ccc2NC(=O)c2ccc(CSCCO)cc2)cc1 [Compound 264] )
**Result** > 6.00

**Query** # get_value(readout='pIC50', item= Cc1ccc(/C=N/NC(=O)c2cc(Cl)ccc2NC(=O)c2ccccn2)cc1C [Compound 363] )
**Result** > 6.00

**Query** # get_value(readout='pIC50', item= O=C(Nc1ccc(Cl)cc1C(=O)N/N=C/c1ccc(Cl)c(C(F)(F)F)c1)c1cccc(C[S+]([O-])Cc2ccco2)c1 (stereo not shown) [Compound 689] )
**Result** > 5.52

**Query** # get_value(readout='pIC50', item= CCN1CC(NCc2ccc(C(=O)Nc3ccc(Br)cc3C(=O)N/N=C/c3cccc(F)c3)cc2)CN1CC [Compound 752] )
**Result** > 5.52

**Query** # get_value(readout='pIC50', item= O=C(Nc1ccc(I)cc1C(=O)N/N=C/c1ccc(Cl)c(C(F)(F)F)c1)c1cccc(CN2CCC(N3CCCCC3)CC2)c1 [Compound 487] )
**Result** > 5.52
